src = paper PMC5540273

system: DCAMKL1; construct: gene DCLK1; conditions: concentration: 1 μM, replicates: in singlicate; n = 1;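 further: KINOMEscan kinase panel screen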
Threshold check on %Inh: strictly below 10% is TRUE; on or above 10% is FALSE.

O=C(CCO)NCCn1ccc2ncnc(Nc3ccc(Oc4cccc(C(F)(F)F)c4)c(Cl)c3)c21    FALSE
Nc1n[nH]c2nnc(-c3ccccc3)cc12 [SB-517389]    FALSE
Cl.Cl.c1ccc(-c2cc3ccncc3cc2OC2CCNCC2)cc1 [GSK1122999]    FALSE
CSc1ccc(NC2=C(c3ccccc3Cl)C(=O)NC2=O)cc1 [SB-342411]    TRUE
FC(F)(F)c1cc(Nc2nccc(-c3c(-c4ccc(Cl)cc4)nn4ncccc34)n2)ccc1Cl [GW829351]    TRUE

IN: Regarding CNc1nccc(-c2c(-c3ccc(F)cc3)ncn2CCCN2CCOCC2)n1 [SB-222516] , kindly confirm whether its %Inh is beneath 10%.
OUT: TRUE

---

Measured %Inh accompanies every entry in the list below.
test system: TNK2; conditions: concentration: 1 μM, replicates: in singlicate; n = 1
Use % as the unit, but write only the number.

Reference set (3 entries):
CSc1nn2c(=O)cc(N3CCOCC3)nc2n1Cc1cccc(Cl)c1Cl    24
Clc1cccc(-c2nc(Nc3ccncc3)c3ccccc3n2)c1    40
COc1ccc(-c2nc3n(c2-c2ccncc2)CCC3)cc1    0

IN: Return reported %Inh. Input compound: CC(C)(C)OC(=O)NC1CCCN(c2cc(-c3ccc4c(N)n[nH]c4c3)nc(N)n2)C1 (stereo not drawn)
OUT: 13

IN: Return reported %Inh. Input compound: O=C(CCO)NCCn1ccc2ncnc(Nc3ccc(Oc4cccc(C(F)(F)F)c4)c(Cl)c3)c21
OUT: 0

IN: Return reported %Inh. Input compound: CCc1nc(-c2cccc(C)c2)c(-c2ccnc(NC(=O)c3ccccc3)c2)s1
OUT: 9

IN: Return reported %Inh. Input compound: Cl.Fc1ccccc1COc1ccc(Nc2ncnc3ccc(-c4nnc(C(F)(F)F)o4)cc23)cc1Cl
OUT: 0

IN: Return reported %Inh. Input compound: c1ccc(-c2ccc3c(-c4ccnc(Nc5ccc6c(c5)OCCO6)n4)cnn3n2)cc1
OUT: 12

IN: Return reported %Inh. Input compound: C[C@H]1CC[C@@H](C(=O)Nc2ccccc2)CN1c1cc(-c2ccc3c(N)n[nH]c3c2)nc(N)n1
OUT: 17

---

tested on: RSK1(Kin.Dom.1-N-terminal); construct: gene RPS6KA1; settings: concentration: 1 μM, replicates: in singlicate; n = 1
Measured %Inh accompanies every entry in the list below.
Use % as the unit, but write only the number.

Reference set (3 entries):
COC(=O)c1c(-c2ccccc2)c2cc(Cl)ccc2c(=O)n1Cc1ccc(S(C)(=O)=O)cc1    5
COc1ccc(Nc2nccc(N3CCC(NC(=O)c4cccc(NC(C)=O)c4)C3)n2)cc1 (stereo not drawn)    0
FC(F)(F)c1cc(Nc2nccc(-c3c(-c4ccc(Cl)cc4)nn4ncccc34)n2)ccc1Cl    0

IN: Return reported %Inh. Input compound: CCc1nc(-c2cccc(N(C)S(=O)(=O)c3ccccc3)c2)c(-c2ccnc(Nc3ccc(N4CCN(C(C)=O)CC4)nc3)n2)s1
OUT: 26

IN: Return reported %Inh. Input compound: Clc1cc(Nc2ncnc3cc[nH]c23)ccc1OCc1ccccn1
OUT: 0

IN: Return reported %Inh. Input compound: Fc1cccc(COc2ccc(Nc3ncnc4cc[nH]c34)cc2Cl)c1
OUT: 12

---

Measured %Inh accompanies every entry in the list below.
test system: EPHA1; conditions: concentration: 1 μM, replicates: in singlicate; n = 1
Use % as the unit, but write only the number.

Reference set (5 entries):
CN1CCC(n2cnc(-c3ccc(F)cc3)c2-c2ccnc(NC3CCNCC3)n2)CC1    0
O=C(NCCCN1CCCC1=O)c1cnc(NCc2cc(Cl)ccc2Cl)nc1NC1CCNCC1    9
CC(C)(C)c1ccc(-n2cnc3c(N)ncnc32)cc1    14
c1ccc(-c2ccc3c(-c4ccnc(Nc5ccc6c(c5)OCCO6)n4)cnn3n2)cc1    7
COc1ccc(-c2oc3ncnc(N)c3c2-c2ccc(OC)cc2)cc1    70

IN: Return reported %Inh. Input compound: CCn1c(-c2ccncc2)nc2cnccc21
OUT: 23

IN: Return reported %Inh. Input compound: CCC(CC)(CC)n1cnc2c(N)ncnc21
OUT: 0

IN: Return reported %Inh. Input compound: CCc1nc(-c2cccc(C)c2)c(-c2ccnc(NC(=O)c3ccccc3)c2)s1
OUT: 0

IN: Return reported %Inh. Input compound: Cl.Cl.c1ccc(-c2cc3ccncc3cc2OC2CCNCC2)cc1
OUT: 11

IN: Return reported %Inh. Input compound: Cl.Cn1ccc(-c2cccc(Nc3ccnc4cc(-c5nccs5)ccc34)c2)n1
OUT: 25

IN: Return reported %Inh. Input compound: COc1ccc(Nc2nccc(N3CCC(NC(=O)c4cccc(NC(C)=O)c4)C3)n2)cc1 (stereo not shown)
OUT: 0

IN: Return reported %Inh. Input compound: O=C(Nc1n[nH]c2nc(-c3ccco3)c(Br)cc12)c1ccc(CN2CCCC2)cc1.O=C(O)[C@H](O)[C@@H](O)C(=O)O
OUT: 3

IN: Return reported %Inh. Input compound: Oc1ccc2ncnc(Nc3ccc(OCc4ccccc4)cc3)c2c1
OUT: 11

IN: Return reported %Inh. Input compound: COc1ccc(Nc2nccc(N3CCC(NC(=O)Nc4ccc5c(c4)OCO5)C3)n2)cc1 (stereo not shown)
OUT: 8

---

tested on: TGFBR2; conditions: concentration: 1 μM, replicates: in singlicate; n = 1
Measured %Inh accompanies every entry in the list below.
Use % as the unit, but write only the number.

Reference set (3 entries):
O=c1cc(N2CCOCC2)nc2n(Cc3cccc(Cl)c3)ccn12    0
Cn1cc(-c2ccc3c(c2)CCN3C(=O)Cc2cccc(C(F)(F)F)c2)c2c(N)ncnc21    9
Fc1cccc(COc2ccc(Nc3ncnc4nn5ccccc5c34)cc2Cl)c1    0

Here's the next entry for you.
IN: Return reported %Inh. Input compound: Nc1n[nH]c2nnc(-c3ccccc3)cc12
OUT: 0

---

tested on: EIF2AK1; conditions: concentration: 1 μM, replicates: in singlicate; n = 1
Threshold check on %Inh: strictly below 2% is Satisfied; on or above 2% is Not satisfied.

Past entries and their recorded results:
Cn1cc(-c2ccc3c(c2)CCN3C(=O)Cc2cccc(C(F)(F)F)c2)c2c(N)ncnc21    Satisfied
CSc1ccc(NC2=C(c3ccccc3Cl)C(=O)NC2=O)cc1    Satisfied
NC(=O)c1sc(-n2cnc3ccccc32)cc1OCc1ccccc1F    Satisfied
Fc1cccc(COc2ccc(Nc3ncnc4nn5ccccc5c34)cc2Cl)c1    Satisfied
COc1ccc(NC(=O)c2ccc(-c3cc(-c4nnc(C)o4)ccc3C)cc2)cc1    Satisfied

IN: Regarding Fc1cccc(COc2ccc(Nc3ncnc4cc[nH]c34)cc2Cl)c1 , kindly confirm whether its %Inh is beneath 2%.
OUT: Not satisfied

IN: Regarding CCc1nc(-c2cccc(C)c2)c(-c2ccnc(NC(=O)c3ccccc3)c2)s1 , kindly confirm whether its %Inh is beneath 2%.
OUT: Not satisfied

IN: Regarding COc1ccc(Nc2nccc(N3CCC(NC(=O)Nc4ccc5c(c4)OCO5)C3)n2)cc1 (stereo not drawn) , kindly confirm whether its %Inh is beneath 2%.
OUT: Satisfied

---

test system: RIOK2; details: concentration: 1 μM, replicates: in singlicate; n = 1
Threshold check on %Inh: strictly below 4% is satisfied; on or above 4% is not satisfied.

Past entries and their recorded results:
CC(C)(C)c1ccc(-n2cnc3c(N)ncnc32)cc1    not satisfied
Nc1nc(-c2ccccn2)c(-c2ccnc3ccccc23)s1    satisfied
Cc1ccc(O)cc1Nc1cc(C(F)(F)F)nc2ccc(-c3ccncc3)cc12    satisfied
Nc1nccc2scc(-c3ccc4c(c3)CCN4C(=O)Cc3cc(F)ccc3F)c12    satisfied
CCCc1ccc(S(=O)(=O)NC2CCN(c3ccnc(Nc4ccc(OC)cc4)n3)C2)cc1 (stereo not shown)    satisfied

IN: Regarding O=c1cc(N2CCOCC2)nc2n(Cc3cccc(Cl)c3)ccn12 , kindly confirm whether its %Inh is beneath 4%.
OUT: not satisfied

---

test system: LOK; construct: gene STK10; conditions: concentration: 1 μM, replicates: in singlicate; n = 1
Threshold check on %Inh: strictly below 5% is 1.0; on or above 5% is 0.0.

Past entries and their recorded results:
COC(=O)c1cccc(NC(=O)NCCNc2ccnc(Nc3ccc(F)cc3)n2)c1    1.0
CCc1nc(-c2cccc(C)c2)c(-c2ccnc(NC(=O)c3ccccc3)c2)s1    0.0
CSc1ccc(NC2=C(c3ccccc3Cl)C(=O)NC2=O)cc1    1.0

IN: Regarding CCCc1ccc(S(=O)(=O)NC2CCN(c3ccnc(Nc4ccc(OC)cc4)n3)C2)cc1 (stereo not drawn) , kindly confirm whether its %Inh is beneath 5%.
OUT: 1.0

IN: Regarding Cl.Cl.c1ccc(-c2cc3ccncc3cc2OC2CCNCC2)cc1 , kindly confirm whether its %Inh is beneath 5%.
OUT: 1.0

IN: Regarding COc1ccc(Nc2nccc(N3CCC(NC(=O)Nc4ccc5c(c4)OCO5)C3)n2)cc1 (stereo not drawn) , kindly confirm whether its %Inh is beneath 5%.
OUT: 1.0

IN: Regarding COc1cc2c(Nc3cccc(NC(=O)c4ccccc4)c3)ncnc2cc1OCCCN1CCOCC1 , kindly confirm whether its %Inh is beneath 5%.
OUT: 0.0

IN: Regarding O=c1cc(N2CCOCC2)nc2n(Cc3cccc(Cl)c3)ccn12 , kindly confirm whether its %Inh is beneath 5%.
OUT: 1.0
